assayed target: T1, mouse serum albumin (mouse, UniProt P07724 25-608)
T1 construct: also called MSA
measurement description: SPR, MSA immobilised
Where no end group is shown, it is not given here.

binder	Kd
LAEAKVLALKELDKYGISNYYKNLINNAKTIEGVKALKDAIVAA (designed binder, not shown: small tags and cut ends, also: part of fusion protein, targeting moiety, linker, tag and order not given here) [Fusion proteins with albumin binding domain of SEQ ID NO: 5]	< 10 nM
LAEAKVLALKELDKYGISNYYKNLINNAKTIEGVEALKDAILAA (designed binder, not shown: small tags and cut ends, also: part of fusion protein, targeting moiety, linker, tag and order not given here, also called c24) [Fusion proteins with albumin binding domain of SEQ ID NO: 7]	< 10 nM
LAEAKVLALKELDKYGISNGYKNLINNAKTIEGVKALKDEIVAA (designed binder, not shown: small tags and cut ends, also: part of fusion protein, targeting moiety, linker, tag and order not given here) [Fusion proteins with albumin binding domain c45 (SEQ ID NO: 35)]	≥ 100 nM
LAEAKVLAIKELDKAGISDYYFNLINNAKTIEGVKALKAQIVAA (designed binder, not shown: small tags and cut ends, also: part of fusion protein, targeting moiety, linker, tag and order not given here) [Fusion proteins with albumin binding domain of SEQ ID NO: 13]	< 16 nM

Attribution: patent US20250388696A1
